Cited source: patent US9212226B2

# assayed.target: CXCR4 (Homo sapiens, UniProt P61073)
# Sequence (P61073 whole entry): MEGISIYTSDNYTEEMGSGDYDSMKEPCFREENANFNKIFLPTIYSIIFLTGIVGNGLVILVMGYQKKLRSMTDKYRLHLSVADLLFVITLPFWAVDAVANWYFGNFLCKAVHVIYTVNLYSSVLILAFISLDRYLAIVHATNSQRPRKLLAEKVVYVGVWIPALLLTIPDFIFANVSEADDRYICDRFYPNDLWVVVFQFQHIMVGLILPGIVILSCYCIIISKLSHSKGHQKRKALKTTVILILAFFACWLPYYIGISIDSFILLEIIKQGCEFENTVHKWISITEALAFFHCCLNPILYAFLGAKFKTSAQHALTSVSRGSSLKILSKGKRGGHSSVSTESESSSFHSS
# method.notes: [125I]-238D4 competition binding on membranes from HEK293T cells transiently expressing CXCR4
# assay.context: at highest test concentration of 0.5 μM (footnote a: no significant displacement; b: maximum not reached)
# Description: HEK293T cells were maintained at 37° C. in a humidified 5% CO2, 95% air atmosphere in Dulbecco's modified Eagle's medium (DMEM) containing 2 mM L-glutamine, 50 IU/ml penicillin, 50 μg/ml streptomycin, and 10% (v/v) fetal calf serum. […] The total protein was determined using a Bradford assay (Bio-Rad). […] Plates were counted by liquid scintillation. […] The accumulated inositol phosphates were isolated by anion exchange chromatography and counted by liquid scintillation. […]
measured.parameter: Displacem. (%) of [125I]-238D4 at 0.5 μM

Input: For the molecule shown here, 237G7: Nanobody (VHH) raised against human CXCR4, SEQ ID NO: 251 (protein, Nanobody, Nanobody constructs or fragments thereof) VHH: EVQLVESGGGLVQPGGSLRLSCAASSFIGNYHAIVWLRQAPGKELEGVSCITSRDSITYYASFVKGRFTISRDDAKNTVYLQMNNLKPEDTAVYYCAVBTSMTCPTLIVRFNYRGQGTQVTVSS , give the reported Displacem. (%) of [125I]-238D4 at 0.5 μM.
Output: 0^a %
